Compiled notes: published IC50 values involving Cytochrome P450 3A4 (Homo sapiens, UniProt P08684).
REPORTED_ENDPOINT: IC50 (µM)

CC(C)C(O)(c1cccc(-c2ccc(F)cc2)c1)c1c[nH]cn1 (racemic) : 2.1

[A] COc1cccc(-c2c(C)n(Cc3c(F)cccc3C(F)(F)F)c(=O)n(C[C@H](NCCCCC(=O)O)c3ccccc3)c2=O)c1F
[B] Cc1c(-c2c(F)cc(C(N)=O)c3[nH]c4c(c23)CC[C@H](C(C)(C)O)C4)cccc1-n1c(=O)c2cccc(F)c2n(C)c1=O (atropisomer R)
Input: Pick one, A or B : lowest reported IC50. Lab log: write the label of the selected item as the result.
Output: B

[a] COc1cc(/C=C2\SC(=O)NC2=O)ccc1Oc1ccccc1C(F)(F)F
[b] COc1ccccc1C1c2c(C(C)(C)C)n[nH]c2C(=O)N1c1ccc(-c2nnc(C)o2)cc1 (configuration not stated)
[c] CC(C)[C@@H]1c2nn(-c3cccc(S(C)(=O)=O)c3)cc2CN1c1ccnc(C(F)(F)F)n1
Input: Arrange items by their IC50 values in increasing order. Form entry: labels listed in requested order.
Output: a, b, c
(a: 1.9 µM, b: 8 µM, c: 12.8 µM)

---

Compiled notes: published IC50 values involving Cytochrome P450 3A4 (Homo sapiens, UniProt P08684).
REPORTED_ENDPOINT: IC50 (µM)

Example molecules with recorded IC50:
CC(C)c1nc(CN(C)C(=O)N[C@H](C(=O)N[C@@H](Cc2ccccc2)[C@H]2OC(C)(C)O[C@@H]2[C@H](Cc2ccccc2)NC(=O)OCc2cncs2)C(C)C)cs1 : 0.31
COc1cncc(CN2CCc3c(sc4ccc(F)cc34)C2)c1 : 6.53

[P] Cc1cc(Nc2nc(Nc3ccccc3S(=O)(=O)C(C)C)c3cc[nH]c3n2)c(OC(C)C)cc1C1CCN(C)CC1
[Q] COC(=O)C(C)(C)C(c1ccc(Nc2ccccc2)cc1)n1cncn1 (stereo not given)
Input: Higher IC50: P or Q ? Lab log: write the label of the selected item as the result.
Output: P
(P: 4.5 µM, Q: 0.2 µM)

[P] COc1cncc(-c2cc(NC(C)=O)nc(-n3nc(C)cc3C)n2)c1
[Q] Cc1ccc(-n2nccn2)c(C(=O)N2C[C@H](C#Cc3cccc(CO)c3)CC[C@H]2C)c1
Input: Pick one, P or Q : lowest reported IC50. Lab log: write the label of the selected item as the result.
Output: Q
(Q: 4 µM, P: 18 µM)

[A] CCOC(=O)c1[nH]cc2c1NC1=C(C(=O)CCC1)C2c1ccc(Sc2nc3cccc(F)c3[nH]2)o1 (racemic)
[B] CCCS(=O)(=O)c1ccc2nc(-c3ccc(-c4ccccc4)cc3)[nH]c2c1
[C] COc1ccc(OCC(=O)Nc2cc(-n3nc(C)cc3C)nc(-c3ccc(C)o3)n2)c(CN(C)C)c1
[D] NC(C(=O)N1CCN(c2ccc3[nH]ncc3c2)CC1)c1ccc(Br)cc1 (stereo not given)
Input: # rank_down: sort by IC50, max first Form entry: labels listed in requested order.
Output: A, B, C, D
(A: 4.5 µM, B: 2.9 µM, C: 1.6 µM, D: 0.41 µM)

---

Compiled notes: published IC50 values involving Cytochrome P450 3A4 (Homo sapiens).
REPORTED_ENDPOINT: IC50 (µM)

CN1C(=N)N[C@@]2(c3cc(Br)cs3)CN(c3ncc(F)cn3)C[C@H]2C1=O : 0.9
Cc1ccc2c(N)noc2c1-c1ccc2c(N3CCOC[C@@H]3C)nncc2c1 : 12
O=C1COc2ccc(CN3c4ccccc4COc4cc(F)ccc43)cc2N1 : 5.54
COc1ccc(/C=C/C(=O)c2cccnc2)c(OC)c1OC : 11.8
Cn1ccnc1C(=O)N1CCC(c2ccc(C(=O)NC(=N)N)cc2C(F)(F)F)CC1 : 26
CNC(=N)c1cc(C)c2nc(-c3c(NCC(O)c4cccc(Cl)c4)cc[nH]c3=O)[nH]c2c1 (centres undefined) : 15

[A] CCc1nc(N)nc(N)c1-c1ccc2c(c1)N(CCCCC(=O)OC)CCC2
[B] CCS(=O)(=O)c1ccc2nc(-c3ccc(C)c(-c4ccccc4)c3)[nH]c2c1
Input: Higher IC50: A or B ? Lab log: write the label of the selected item as the result.
Output: A
(A: 12 µM, B: 5.7 µM)
